- methodSummary: AUClast in rat at 10 mg/kg, po
- Type: ADME, organism-based
- Set-up: dose 10 mg/kg, route oral, time 0 - last
- runParameters: plasma
recordedMetric: AUC(0-t) (ng·h/mL)
Enter your answer as a number in ng·h/mL; do not include the unit.

Please fill in: AUC(0-t) reported for `Cc1ccc(CC(=O)O)cc1NC(=O)c1ccc(OC[C@@H]2CN(C)c3ccccc3O2)cc1C` = 28800

* * *

- methodSummary: Oral bioavailability in rat at 10 mg/kg
- Type: ADME, organism-based
- runParameters: in vivo
recordedMetric: bioavailability (%)
Enter your answer as a number in %; do not include the unit.

A selection of reference data follows.
CN1C[C@@H](COc2ccc(C(=O)Nc3cccc(CC(=O)O)c3)cc2)Oc2ccccc21 | 119
Cc1ccc(CC(=O)O)cc1NC(=O)c1ccc(OC[C@@H]2CN(C)c3ccccc3O2)cc1C | 62

Proceeding to the next compound to report its bioavailability.
Please fill in: bioavailability reported for `Cc1cc2c(CC(=O)O)cccc2n1C(=O)c1ccc(OC[C@@H]2CN(C)c3ccccc3O2)cc1` = 34
